- Test system: PD-1/PD-L1 interaction in human peripheral mononuclear cells (PBMC)
- assay.procedure: PD-1 signal inhibition at cellular level: IL-2 secretion of SEB-stimulated PBMC (ELISA)
- Type: cell-based
- assay.context: SEB 200 ng/mL-stimulated volunteer PBMC, compound 2 μM, 96 h; compared to anti-human PD-1 antibody (5 μg/mL)
As shown below, each of these molecules has a reported Activity of promoting IL-2 (%) value.
property: Activity of promoting IL-2 (%)

* Cc1cc(CNCCNC(=O)NCCN(C)C)c(OCc2cncc(C#N)c2)cc1OCc1cccc(-c2ccc3c(c2)OCCO3)c1C#N [Compound I-11] | 51.7%
* Cc1cc(CNCCOCCNC(=O)NCCO)c(OCc2cncc(C#N)c2)cc1OCc1cccc(-c2ccc3c(c2)OCCO3)c1C#N [Compound I-7] | 58.1%
* C=C(NC(=O)NCCNCc1cc(C)c(OCc2cccc(-c3ccc4c(c3)OCCO4)c2C#N)cc1OCc1cncc(C#N)c1)C(=O)O [Compound I-6] | 56.3%
* Cc1cc(CNCCNC(=O)NC(CO)(CO)CO)c(OCc2cncc(C#N)c2)cc1OCc1cccc(-c2ccc3c(c2)OCCO3)c1C#N [Compound I-5] | 53%

----------
- system.tested: PD-1/PD-L1 binding (UniProt Q9NZQ7)
- Construct: fused on or other part: human IgG Fc (hFc tag) fused to PD-L1
- assay.procedure: In-vitro PD-1/PD-L1 binding inhibition (HTRF)
- assay.context: His-PD-1 100 nM, PD-L1-Fc 2 nM final, read-out: IC50 on inhibiting PD-1/PD-L1 binding in-vitro
pIC50: −log10 of the molar value.
property: pIC50

• Cc1cc(CNCCNC(=O)NC(CO)(CO)CO)c(OCc2cncc(C#N)c2)cc1OCc1cccc(-c2ccc3c(c2)OCCO3)c1C#N [Compound I-5] = 7.44
• Cc1cc(CNCCOCCNC(=O)NCCS(C)(=O)=O)c(OCc2cncc(C#N)c2)cc1OCc1cccc(-c2ccc3c(c2)OCCO3)c1C#N [Compound I-9] = 7.55
• Cc1cc(CNCCNC(=O)NCCS(C)(=O)=O)c(OCc2cncc(C#N)c2)cc1OCc1cccc(-c2ccc3c(c2)OCCO3)c1C#N [Compound I-12] = 7.31

----------
Recorded IC50 by entry
- system.tested: PD-1/PD-L1 binding (UniProt Q9NZQ7)
- Construct: fused on or other part: human IgG Fc (hFc tag) fused to PD-L1
- assay.procedure: In-vitro PD-1/PD-L1 binding inhibition (HTRF)
- assay.context: His-PD-1 100 nM, PD-L1-Fc 2 nM final, read-out: IC50 on inhibiting PD-1/PD-L1 binding in-vitro
- Description: Main Principle of the Experiment (HTRF) Homogeneous Time-Resolved Fluorescence (HTRF): The PD-1 protein carried an His tag and the Fc fusion protein of its ligand PD-L1 carried an hFc tag. […] (4) The fluorescence signal of each well was detected by a fluorescence detector Tecan (Spark 10M) with an excitation wavelength of 320 nm and detected emission wavelengths of 620 nm and 665 nm, respectively. The intensity of PD-1/PD-L1 binding to each other referred to the fluorescence signal ratio Em665/Em620. […]
property: IC50 (nM)

• Cc1cc(CNCCOCCNC(=O)NCCO)c(OCc2cncc(C#N)c2)cc1OCc1cccc(-c2ccc3c(c2)OCCO3)c1C#N = 43.7
• C=CC(=O)NCCNC(=O)NCCNCc1cc(C)c(OCc2cccc(-c3ccc4c(c3)OCCO4)c2C#N)cc1OCc1cncc(C#N)c1 = 197
• C=C(NC(=O)NCCNCc1cc(C)c(OCc2cccc(-c3ccc4c(c3)OCCO4)c2C#N)cc1OCc1cncc(C#N)c1)C(=O)O = 70.2
• Cc1cc(CNCCNC(=O)NCCO)c(OCc2cncc(C#N)c2)cc1OCc1cccc(-c2ccc3c(c2)OCCO3)c1C#N = 37.5
• Cc1c(COc2ccc(CNCCNC(=O)NCCN3CCOCC3)c(OCc3cccc(C#N)c3)c2)cccc1-c1ccccc1 = 1710
